TARGET: T1, cyno TfR extracellular domain (analogous construct to human TfR ecd) (cynomolgus monkey, UniProt Q5RDH6 87-760 (Pongo abelii entry))
T1 construct: also called cynoTfR ecd
T1 chain: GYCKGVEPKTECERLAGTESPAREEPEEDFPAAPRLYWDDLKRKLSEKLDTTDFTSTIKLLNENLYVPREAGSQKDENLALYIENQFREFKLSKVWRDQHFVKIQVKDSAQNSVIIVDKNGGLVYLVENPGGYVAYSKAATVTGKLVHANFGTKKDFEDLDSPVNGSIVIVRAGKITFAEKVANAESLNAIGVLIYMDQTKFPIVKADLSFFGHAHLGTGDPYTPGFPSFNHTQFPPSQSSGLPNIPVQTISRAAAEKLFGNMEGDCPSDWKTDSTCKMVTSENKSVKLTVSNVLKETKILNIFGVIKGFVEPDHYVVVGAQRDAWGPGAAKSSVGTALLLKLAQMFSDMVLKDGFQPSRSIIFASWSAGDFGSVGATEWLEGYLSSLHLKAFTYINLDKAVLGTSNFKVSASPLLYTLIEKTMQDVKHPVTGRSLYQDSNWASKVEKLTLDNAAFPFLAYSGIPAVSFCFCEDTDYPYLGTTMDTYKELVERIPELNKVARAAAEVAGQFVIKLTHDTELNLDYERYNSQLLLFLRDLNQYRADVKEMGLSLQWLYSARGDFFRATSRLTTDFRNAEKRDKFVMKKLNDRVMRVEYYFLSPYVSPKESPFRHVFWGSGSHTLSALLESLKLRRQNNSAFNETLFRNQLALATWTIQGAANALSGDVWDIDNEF
METHOD DESCRIPTION: ELISA, TfR-coated plate, IgG in culture supernatant;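 also: human or cynomolgus TfR coated at 2 µg/mL, supernatant IgG titrated in 1:5 steps for 1 h, bound antibody read with HRP anti-human Fcγ and TMB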
QUANTITY MEASURED: EC50

BINDER	MEASURED VALUE
hu15G11.v5 IgG Ala variant T52A (HVR-L2) (antibody, V domains shown, IgG in cell culture supernatant) VH: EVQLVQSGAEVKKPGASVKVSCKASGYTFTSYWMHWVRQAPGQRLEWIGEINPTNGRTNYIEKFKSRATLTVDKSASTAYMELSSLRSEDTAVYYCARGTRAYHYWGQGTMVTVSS VL: DIQMTQSPSSLSASVGDRVTITCRASDNLYSNLAWYQQKPGKSPKLLVYDAANLADGVPSRFSGSGSGTDYTLTISSLQPEDFATYYCQHFWGTPLTFGQGTKVEIK	0.3 ng/mL
hu15G11.v5 IgG Ala variant G49A (HVR-H2) (antibody, name in Kabat numbering, V domains shown, IgG in cell culture supernatant) VH: EVQLVQSGAEVKKPGASVKVSCKASGYTFTSYWMHWVRQAPGQRLEWIAEINPTNGRTNYIEKFKSRATLTVDKSASTAYMELSSLRSEDTAVYYCARGTRAYHYWGQGTMVTVSS VL: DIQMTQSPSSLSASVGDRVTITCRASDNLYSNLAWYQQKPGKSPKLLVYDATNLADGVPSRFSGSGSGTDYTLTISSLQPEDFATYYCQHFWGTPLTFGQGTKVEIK	1.1 ng/mL
hu15G11.v5 IgG Ala variant N52A (HVR-H2) (antibody, V domains shown, IgG in cell culture supernatant; also called 15G11.N52A; 15G11.52A) VH: EVQLVQSGAEVKKPGASVKVSCKASGYTFTSYWMHWVRQAPGQRLEWIGEIAPTNGRTNYIEKFKSRATLTVDKSASTAYMELSSLRSEDTAVYYCARGTRAYHYWGQGTMVTVSS VL: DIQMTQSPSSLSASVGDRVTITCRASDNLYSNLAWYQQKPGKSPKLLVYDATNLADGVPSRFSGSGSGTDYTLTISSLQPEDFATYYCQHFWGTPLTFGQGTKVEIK	0.9 ng/mL
hu15G11.v5 IgG Ala variant K64A (HVR-H2) (antibody, name in Kabat numbering, V domains shown, IgG in cell culture supernatant; Kabat numbers after 52a lie one below the linear count) VH: EVQLVQSGAEVKKPGASVKVSCKASGYTFTSYWMHWVRQAPGQRLEWIGEINPTNGRTNYIEKFASRATLTVDKSASTAYMELSSLRSEDTAVYYCARGTRAYHYWGQGTMVTVSS VL: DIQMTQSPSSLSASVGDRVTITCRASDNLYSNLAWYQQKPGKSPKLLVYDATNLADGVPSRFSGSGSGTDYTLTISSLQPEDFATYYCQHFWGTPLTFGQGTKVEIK	0.6 ng/mL
hu15G11.v5 IgG Ala variant G26A (HVR-H1) (antibody, name in Kabat numbering, V domains shown, IgG in cell culture supernatant) VH: EVQLVQSGAEVKKPGASVKVSCKASAYTFTSYWMHWVRQAPGQRLEWIGEINPTNGRTNYIEKFKSRATLTVDKSASTAYMELSSLRSEDTAVYYCARGTRAYHYWGQGTMVTVSS VL: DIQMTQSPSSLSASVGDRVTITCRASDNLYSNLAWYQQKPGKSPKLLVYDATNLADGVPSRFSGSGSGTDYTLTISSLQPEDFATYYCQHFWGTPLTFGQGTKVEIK	6.1 ng/mL

Cited source for all entries: patent US20180057604A1
